Assay: folding stability dG unfold from chymotrypsin proteolysis; higher = more stable
Measured folding stability dG unfold accompanies every entry in the list below.

Solved cases (3 shown):
Monomer sequence: SAGGSAGGSMPKTYSFKVKSKEEIVKLIEELKKLGAKKVEVKELPDGYELYVEVGDSVIKVYSSAGGSAGGS [r12_846_TrMRF]
Endpoint value: 1.1 kcal/mol

Monomer sequence: SELVEKAAEKGVKEIHIYLSEEQREAILKAADAGVKITIHLPEGATVEELKALPGIKVDKVEVFSPEELKSA [r9_671_TrROS_Hall]
Endpoint value: -0.078 kcal/mol

Monomer sequence: SAGGSAGGSAGGMAVVVDSPEEAEEVIEELERSFPALGAKVVVPRVQVGDKLVLPLGLELSAGGSAGGSAGG [r7_588_TrMRF]
Endpoint value: 0.0463 kcal/mol

Attention now shifts to the item below.
Just so you know, measured folding stability dG unfold for SAGGSAGGSAGGGKKILGVQPELFYDPENGTLYVKTVAVGEDENGAPGDADISVEPFPLLSAGGSAGGSAGG [r7_892_TrMRF] came out at -0.596 kcal/mol

----------
Test: folding stability dG unfold from trypsin proteolysis; higher = more stable
Quantity kind: folding stability dG unfold (kcal/mol)
Number in kcal/mol, nothing else.

Solved cases (5 shown):
Monomer sequence: SAGGSAGGSAGKIKAYAEKDVPAEIVAKAIEEEIREAFPDNPEEIKGIEVEPDGFLSETISAGGSAGGSAGG [r17_43_TrMRF]
Endpoint value: -0.636
--
Monomer sequence: SAGGSAGGSVVPVKAVFKLPDGDEVEGLALVDNRPDGSLVVLFQLPGTGETVGSATAELLKVEGSAGGSAGG [r6_254_TrMRF]
Endpoint value: 0.523
--
Monomer sequence: SAGGSAGGWITLDLIKELAREAMNQAQLNGMENVPIEIRWPDGWRIKIEINMNKVEVDVQPWNDSAGGSAGG [r6_270_TrROS]
Endpoint value: 1.9
--
Monomer sequence: SAGGSAGGKLVLKIKIYNKKTKKVYEFEIEADSLEELKEALKKLGLPKDVKIVSVELRPLDEEPSAGGSAGG [r6_23_TrROS_Hall]
Endpoint value: 3.65
--
Monomer sequence: SAGGSAPVTEGPNSITVTRDLDPSESEEEVRALAEEILAALPADVSVSVEFDPETGTATITITFPGSAGGSA [r15_210_JUSTAS]
Endpoint value: 2.31

Just so you know, measured folding stability dG unfold for SAGPTFEIVSVEEVDGKTYIRIRLPNGRIVTARITEVKRLGPDGKLYIKVEPGMSEEELKALLPPEVLKSAG [r5_462_TrROS_Hall] came out at 2.29

Just so you know, measured folding stability dG unfold for SAGGGPDLVIDVEILEIRVEPEPGKTATIRVRALIYNPETDTWTLAEFEIRIPDDGSVEVRFRVEPLRSAGG [r13_917_TrMRF] came out at 3.08

----------
Assay: folding stability dG unfold (combined trypsin and chymotrypsin); higher = more stable
Quantity kind: folding stability dG unfold (kcal/mol)
Number in kcal/mol, nothing else.

Monomer sequence: SAGGSAGGSAGKKIKLPKELKGKKIEVKEVEIEVEVNGKKYKFKAKIVKFDGKIIAIELESAGGSAGGSAGG [r11_21_TrROS_Hall]
folding stability dG unfold / kcal/mol: 2.98

Monomer sequence: SAGGSAMKKVTVTVKFPDGTTYTFDMDTESEEEFEKKVREEALKRFPDIPLEDVEVTEVVVTPELLSAGGSA [r15_220_JUSTAS]
folding stability dG unfold / kcal/mol: 2.33

Monomer sequence: SELVEKAAEKGVKEIHIYLSEEQREAILKAADAGVKITIHLPEGATVEELKALPGIKVDKVEVFSPEELKSA [r9_671_TrROS_Hall]
folding stability dG unfold / kcal/mol: 0.0735

Monomer sequence: SAGGSAGGSASYIPVTYSFFFPDKPYVERVEAEYELGPDGTPRILSAKVEVFPVDFSPDELSAGGSAGGSAG [r3_138_TrMRF]
folding stability dG unfold / kcal/mol: 0.663

Just so you know, measured folding stability dG unfold for SAGGSAGGKRKIEIHIIIPPGMPPEWRKKAIEIAKWFAKTLAQENNREVEIKIEIFVLDGMPPWSAGGSAGG [r6_204_TrROS] came out at 3.6

Just so you know, measured folding stability dG unfold for SIKIRKEKTPNGYYEITFEFPFPDGWPMTIEANVQVDPENGKVKVDIKIEDPNLPPEFKEFIENFEFKVPSA [r9_715_TrROS] came out at 2.52
